Please go through the items and note down their GI50.
test system: OVCAR-5 ovarian; experiment: NCI tumour cell line growth inhibition, 48 h

[
  {
    "Compound": "N/C(=N\\c1nc2ccccc2s1)NC(=NC1CCCCC1)NC1CCCCC1",
    "Result": "1.62 µM"
  },
  {
    "Compound": "O=S(=O)(NC1=NCCN1C(=S)SN1CCn2c1nsc2=S)c1cccc(OC(F)(F)F)c1",
    "Result": "16.4 µM"
  }
]

Here is the next item to consider.
Lab book: GI50 of Nc1n[nH]c2ccc([C@@H]3Nc4cc5[nH]ncc5cc4[C@H]4C5CCC(C5)[C@@H]34)cc12 (stereo partly drawn) noted as 0.565 µM

###

Give TGI for every item shown.
tested on: 786-0 renal; assay: NCI tumour cell line growth inhibition, 48 h
Where a SMILES comes first, the peptide text is derived from it. [ ]: non-standard residue; d: D form. The star is where a group is joined. ξ: configuration not given here. ξD = NC(CC(=O)O)C(=O)O; Ac3c = NC1(C(=O)O)CC1; Boc = CC(C)(C)OC(=O)*; OtBu = CC(C)(C)O*

Below, 3 compounds whose answers are already recorded.
[
  {
    "Compound": "Cc1nc2ccccc2c(=O)n1/N=C(\\N=Nc1cccc(Cl)c1)c1ccccc1Cl",
    "Tested on": "786-0 renal",
    "Result": "> 100 µM"
  },
  {
    "Compound": "COC(=O)C1(NC(=O)C(CC(=O)OC(C)(C)C)NC(=O)OC(C)(C)C)CC1 (stereo unspecified) (Boc-[ξD](OtBu)-[Ac3c]-OMe)",
    "Tested on": "786-0 renal",
    "Result": "> 100 µM"
  },
  {
    "Compound": "O=C(NCC(=O)N1CCOC1=O)OCc1ccccc1",
    "Tested on": "786-0 renal",
    "Result": "> 100 µM"
  }
]

For every item below, please supply its TGI.
1. COc1nc(OC)nc(-c2cccc(F)c2)n1
2. Cc1cc(NC(=O)c2cnc(N3CCN(CCOCCOCCOCCOCCC(=O)N[C@H](C(=O)N4C[C@H](O)C[C@H]4C(=O)N[C@@H](C)c4ccc(-c5scnc5C)cc4)C(C)(C)C)CC3)cn2)c2ncccc2c1
3. O=C1c2ccccc2-c2nc(-c3ccccc3)cc3c2c1nc1ccccc13
4. C=C1CC[C@@H]2[C@](C)(COC(C)=O)[C@H](OC(C)=O)CC[C@@]2(C)[C@@H]1CC(Nc1ccc(S(=O)(=O)Nc2nccs2)cc1)C1=CCOC1=O (stereo partly specified)

1. 63 µM
2. > 100 µM
3. > 100 µM
4. 6.74 µM

###

system: SR leukemia; test: NCI tumour cell line growth inhibition, 48 h
Recorded endpoint: TGI

The cases that follow already have their TGI on record.
[
  {
    "Compound": "O=c1c(O)cccn1CCCN(CCCn1cccc(O)c1=O)CCn1cccc(O)c1=O",
    "Recorded endpoint": "TGI",
    "Result": "> 100 µM"
  },
  {
    "Compound": "Cc1cc(C)nc(NS(=O)(=O)c2ccc(NC(=O)c3cccn4c(=O)c5ccccc5nc34)cc2)n1",
    "Recorded endpoint": "TGI",
    "Result": "> 100 µM"
  },
  {
    "Compound": "COC1(C)C(=O)N2C1N(C(=O)OCc1ccccc1)CC2(C)C (configuration not stated)",
    "Recorded endpoint": "TGI",
    "Result": "> 100 µM"
  },
  {
    "Compound": "COC(=O)/C=C/c1cc(OC)c2oc(-c3ccc(OC)c(OC)c3)c(C(=O)OC)c2c1",
    "Recorded endpoint": "TGI",
    "Result": "> 100 µM"
  },
  {
    "Compound": "S=C(N/N=C\\c1ccccn1)N(Cc1ccccn1)Cc1ccccn1",
    "Recorded endpoint": "TGI",
    "Result": "> 39 µM"
  },
  {
    "Compound": "C=C(Br)CNCC(=C)Br",
    "Recorded endpoint": "TGI",
    "Result": "> 100 µM"
  }
]

Record TGI for all entries; do not skip any.
1. CCOC(=O)c1c(NCc2ccccc2)n(-c2ccccc2)c(=S)n(-c2ccccc2)c1=O
2. O=c1cccc(C#CC#CCCCO)o1
3. CCC[CH2][Sn]([CH2]CCC)([O]C(=O)/C=C/c1ccccc1F)[O]C(=O)/C=C/c1ccccc1F
4. COc1cc([C@H]2Oc3c(OC)cc(CCCO)cc3[C@@H]2CO)ccc1O
5. O=c1[nH]c2cc3cccnc3c(Cl)c2nc1CBr
6. Clc1nc(Nc2nc3ccccc3[nH]2)nc(Cl)c1Cc1ccccc1
7. O=C1CCC(N2C(=O)c3cccc(NCCCC4CCN(CCNC(=O)c5cc6c(o5)C(=O)c5ccccc5C6=O)CC4)c3C2=O)C(=O)N1 (configuration not stated)
8. O=C1c2ccccc2C(=O)N1C1(C(=O)NC2(C(=O)O)CCCC2)CCCC1

1: > 100 µM; 2: 2.37 µM; 3: 2.1 µM; 4: > 100 µM; 5: 73.3 µM; 6: > 100 µM; 7: > 30.1 µM; 8: > 100 µM
